These data points were gathered from patent US20140356358A1.

Known ELISA score of a selection of binders
Target: T1, human neonatal Fc receptor (hFcRn) (human, UniProt P55899 24-290; P61769 21-119)
T1 construct: Biotinylated in the ELISA, Octet and yeast assays; also called human FcRn; huFcRn
T1 sequence (P55899 24-290 limits assumed, chain 1 of 2): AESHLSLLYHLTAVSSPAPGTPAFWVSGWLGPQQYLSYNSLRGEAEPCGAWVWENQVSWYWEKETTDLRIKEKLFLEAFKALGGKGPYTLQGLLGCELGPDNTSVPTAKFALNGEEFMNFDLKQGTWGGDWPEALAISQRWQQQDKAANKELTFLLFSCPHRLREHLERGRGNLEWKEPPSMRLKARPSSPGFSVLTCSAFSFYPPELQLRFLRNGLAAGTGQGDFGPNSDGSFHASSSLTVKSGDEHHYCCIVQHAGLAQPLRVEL
T1 sequence (P61769 21-119 limits assumed, chain 2 of 2): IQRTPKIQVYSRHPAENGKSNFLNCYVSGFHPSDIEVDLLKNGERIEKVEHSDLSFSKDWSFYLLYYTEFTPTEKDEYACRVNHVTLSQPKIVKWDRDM
Test: phage ELISA pH 7.4;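 further: higher score means stronger binding and above about 3 to 5 exceeds background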

binder	ELISA score
variant Fc-fragment Fc-5-96 (other, soluble elsewhere) EPKSCDKTHTCPPCPAPELLGGPSVFLFPPKPKDTLMISRTPEVTCVVVDVSHEDPEVKFNWYVDGVEVHNAKTKPREEQYNSTYRVVSVLTVLHQDWLNGKEYKCKVSNKALPAPIEKTISKAKGQPREPQVYTLPPSRDELTKNQVSLTCLVKGFYPSDIAVEWESNGGCMQMNKWCGGGQPENNYKTTPPVLDSDGSFFLYSKLTVDKSRWQQGNVFSCSVMHEALHNHYTQKSLSLSPGK	0.5
L5 isolate with insertion SEQ ID NO: 413 (other) EPKSCDKTHTCPPCPAPELLGGPSVFLFPPKPKDTLMISRTPEVTCVVVDVSHEDPEVKFNWYVDGVEVHNAKTKPREEQYNSTYRVVSVLTVLHQDWLNGKEYKCKVSNKALPAPIEKTISKAKGQPREPQVYTLPPSRDELTKNQVSLTCLVKGFYPSDIAVEWESNGGCMTQYNWCGGGQPENNYKTTPPVLDSDGSFFLYSKLTVDKSRWQQGNVFSCSVMHEALHNHYTQKSLSLSPGK	0.5
